Just for reference, paper PMC8626469 is where these values come from.

- measurement.target: T1, Helicobacter pylori FabX (H. pylori)
- T1 chain: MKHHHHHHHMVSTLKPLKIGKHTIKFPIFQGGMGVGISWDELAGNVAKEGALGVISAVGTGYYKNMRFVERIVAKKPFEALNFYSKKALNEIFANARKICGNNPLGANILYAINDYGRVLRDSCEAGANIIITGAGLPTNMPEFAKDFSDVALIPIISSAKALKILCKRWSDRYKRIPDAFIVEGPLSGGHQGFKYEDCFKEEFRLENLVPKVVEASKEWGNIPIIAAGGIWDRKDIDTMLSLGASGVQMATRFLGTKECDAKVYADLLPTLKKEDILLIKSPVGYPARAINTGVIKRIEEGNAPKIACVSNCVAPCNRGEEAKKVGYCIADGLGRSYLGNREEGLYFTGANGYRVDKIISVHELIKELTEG
- protocol.details: ITC
readout.name: Kd (nM)
Report only the number, with the unit nM understood.

# input Value lookup for Kd; key = Helicobacter pylori holo-acyl carrier protein (natural protein, phosphopantetheine group (PPant) on Ser36) MALFEDIQAVIAEQLNVDAVQVTPEAEFVKDLGADSLDVVELIMALEEKFGVEIPDEQAEKIINVGDVVKYIEDNKLA
# output 1640
